# target_entity: mGluR^2 (Homo sapiens)
# Sequence (Q14416 19-872): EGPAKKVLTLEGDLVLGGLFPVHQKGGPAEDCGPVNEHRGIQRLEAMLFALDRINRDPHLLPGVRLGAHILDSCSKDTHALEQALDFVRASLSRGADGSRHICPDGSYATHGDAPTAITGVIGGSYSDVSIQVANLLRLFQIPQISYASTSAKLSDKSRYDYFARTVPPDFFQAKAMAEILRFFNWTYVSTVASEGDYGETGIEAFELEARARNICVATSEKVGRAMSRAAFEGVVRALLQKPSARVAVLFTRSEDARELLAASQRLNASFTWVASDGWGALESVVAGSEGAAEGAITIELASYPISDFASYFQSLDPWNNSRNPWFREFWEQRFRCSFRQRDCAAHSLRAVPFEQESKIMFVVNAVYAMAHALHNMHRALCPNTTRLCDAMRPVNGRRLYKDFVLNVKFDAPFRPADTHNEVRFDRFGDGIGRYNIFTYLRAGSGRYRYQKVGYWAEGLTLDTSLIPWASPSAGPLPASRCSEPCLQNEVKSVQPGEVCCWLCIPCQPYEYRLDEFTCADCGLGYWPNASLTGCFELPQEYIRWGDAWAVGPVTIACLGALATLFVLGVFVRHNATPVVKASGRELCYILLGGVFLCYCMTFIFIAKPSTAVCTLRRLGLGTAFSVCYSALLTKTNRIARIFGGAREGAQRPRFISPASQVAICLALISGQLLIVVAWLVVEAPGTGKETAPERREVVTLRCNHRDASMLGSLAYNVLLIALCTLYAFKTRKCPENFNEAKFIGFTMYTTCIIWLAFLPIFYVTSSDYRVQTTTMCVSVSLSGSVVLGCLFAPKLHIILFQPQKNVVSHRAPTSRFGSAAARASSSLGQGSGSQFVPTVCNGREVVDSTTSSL
readout_type: Ki (nM)
Quick reminder: number only, in nM, skip the unit.

Q: Name the recorded Ki of the compound listed here: N[C@@H](C(=O)O)[C@@H]1[C@H](COC(=O)Nc2ccccc2)[C@H]1C(=O)O (racemic)
A: 285
